Test system: T47D
EXPERIMENTAL PROTOCOL: GRmax, 72 h; higher = less effect;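 further: breast cell lines in 384-well plates, nine doses across a 10^4 range, Dye Drop imaging of viable cells vs DMSO and time-zero plates, GR 0 means no net growth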

# COMPOUND, UNIT, GRmax, 72 h
records = [
    ("CC(C)n1nc(-c2ccc3oc(N)nc3c2)c2c(N)ncnc21 [INK128/MLN0128] (max 3.162 µM)", "GR", -0.0486),
    ("O=C(CCCCCCC(=O)Nc1ccccc1)NO [Vorinostat] (max 10 µM)", "GR", -0.157),
    ("CN(C)C/C=C/C(=O)Nc1ccc(C(=O)N2CCC[C@@H](Nc3ncc(Cl)c(-c4c[nH]c5ccccc45)n3)C2)cc1 [THZ531] (max 1 µM)", "GR", -0.141),
    ("CS(=O)(=O)N1CCN(Cc2cc3nc(-c4cccc5[nH]ncc45)nc(N4CCOCC4)c3s2)CC1 [Pictilisib/GDC0941] (max 10 µM)", "GR", -0.147),
    ("COc1cc2c(Oc3ccc4[nH]c(C)cc4c3F)ncnc2cc1OCCCN1CCCC1 [Cediranib/AZD2171] (max 10 µM)", "GR", -0.64),
    ("COc1cccc(OCCCN)c1-c1cc(Nc2cnc(C#N)cn2)n[nH]1", "GR", 0.428),
    ("CC(=O)c1c(C)c2cnc(Nc3ccc(N4CCN(CCOCCOCCOCCNC(=O)COc5cccc6c5C(=O)N(C5CCC(=O)NC5=O)C6=O)CC4)cn3)nc2n(C2CCCC2)c1=O (configuration not stated) [BSJ-03-123] (max 10 µM)", "GR", 0.0948),
    ("CN1CCN(C(=O)c2ccc3cc(CCNc4ncnc5ccc(C#N)cc45)ccc3c2)CC1 [senexin b] (max 10 µM)", "GR", 0.213),
    ("COc1cc(N2CCN(C)CC2)ccc1Nc1ncc2c(n1)N(C)c1ccccc1C(=O)N2CC(F)(F)F", "GR", 0.683),
    ("CC(=O)c1c(C)c2cnc(Nc3ccc(N4CCNCC4)cn3)nc2n(C2CCCC2)c1=O (max 3.162 µM)", "GR", 0.117),
    ("CC(=O)Nc1cccc(-n2c(=O)n(C3CC3)c(=O)c3c(Nc4ccc(I)cc4F)n(C)c(=O)c(C)c32)c1 (max 1 µM)", "GR", 0.58),
    ("O=C1NC(=NCc2cccs2)SC1=Cc1ccc2ncccc2c1 [R0-3306] (max 10 µM)", "GR", -0.0261),
    ("CCCCOc1c(C(=O)c2c(F)cc(C)cc2F)c[nH]c2nncc1-2 (max 10 µM)", "GR", 0.0035),
    ("COc1cc2nccc(Oc3ccc(NC(=O)C4(C(=O)Nc5ccc(F)cc5)CC4)cc3)c2cc1OC [Cabozantinib] (max 10 µM)", "GR", 0.313),
    ("O=C(c1cc(Cc2n[nH]c(=O)c3ccccc23)ccc1F)N1CCN(C(=O)C2CC2)CC1 [Olaparib/AZD2281] (max 10 µM)", "GR", 0.53),
    ("Cc1cc(C(C)Nc2ccccc2)c2nc(N3CCOCC3)cc(=O)n2c1 (configuration not stated) [TGX221] (max 10 µM)", "GR", 0.799),
    ("CC1(N)CCN(c2cnc(-c3cccc(Cl)c3Cl)c(N)n2)CC1 [SHP099] (max 10 µM)", "GR", 0.879),
]

Sourced from the supplement of paper PMC9663587
